Just for reference, PubChem BioAssay (NCI) is where these values come from.

Test system: SK-MEL-5 melanoma
Experiment: NCI tumour cell line growth inhibition, 48 h
METRIC NAME: TGI

Incoming: If you can, please state the reported TGI value of OC[C@H]1CCCC1O (stereo partly specified) .
Outgoing: > 100 µM

Incoming: If you can, please state the reported TGI value of `COc1cc2c3c(n(CCCNC(=O)OCC4c5ccccc5-c5ccccc54)c(=O)c2cc1OC)-c1cc2c(cc1/C3=C\CCNC(=O)OCC1c3ccccc3-c3ccccc31)OCO2` .
Outgoing: > 50 µM

Incoming: If you can, please state the reported TGI value of `COc1ccc(/C=C/c2ccnc3ccccc23)c(OC)c1` .
Outgoing: > 10 µM

Incoming: If you can, please state the reported TGI value of `Cc1ccc(C2=C(c3ccccc3)C(Br)(c3ccc(C)cc3)C(c3ccccc3)=C2c2ccc(C)cc2)cc1` .
Outgoing: > 100 µM

Incoming: If you can, please state the reported TGI value of COC1=C(C)C(=O)c2c(c(COC(N)=O)c3n2CC2C3N2C)C1=O (stereo unspecified) .
Outgoing: 0.15 µM

Incoming: If you can, please state the reported TGI value of `CN(C)C(=O)c1cc2cnc(Nc3ccc(-c4csc5c(=S)cc(N6CCOCC6)oc45)cc3)nc2n1C1CCCC1` .
Outgoing: 2.43 µM

Incoming: If you can, please state the reported TGI value of CCOC(=O)CC1(C(=O)OCC)c2[nH]c3ccccc3c2CCN1Cc1ccccc1 (stereo unspecified) .
Outgoing: 34.6 µM

Incoming: If you can, please state the reported TGI value of OCC(O)COCn1nncc1Cn1ncc2c(SCc3ccccc3)ncnc21 (stereo unspecified) .
Outgoing: > 100 µM

Incoming: If you can, please state the reported TGI value of `O=C(NC1=CC(=O)c2ccccc2C1=O)c1ccccc1` .
Outgoing: 1.48 µM

Incoming: If you can, please state the reported TGI value of `COc1cc(C=C2C(=O)NC(=O)NC2=O)cc(OC)c1OC` .
Outgoing: > 100 µM

Incoming: If you can, please state the reported TGI value of `CC(C)(C)c1ccc2c(c1)S(=O)(=O)Nc1ccccc1NS(=O)(=O)c1cc(C(C)(C)C)ccc1OCCOCCOCCO2` .
Outgoing: > 100 µM

Incoming: If you can, please state the reported TGI value of `COC(=O)[C@@H](C)CNS(=O)(=O)N(c1cc(C(F)(F)F)cc(C(F)(F)F)c1)C1CCN(Cc2ccc(F)cc2)CC1` .
Outgoing: 12 µM

Incoming: If you can, please state the reported TGI value of `CCOC(=O)CNc1c(OCc2ccccc2)c(=O)c1=O` .
Outgoing: > 100 µM

Incoming: If you can, please state the reported TGI value of C[C@@H]1CC(=O)C2CCCC1C2=O (stereo partly specified) .
Outgoing: > 100 µM

Incoming: If you can, please state the reported TGI value of `NC(N)=N/N=C/c1c[nH]c2ccccc12` .
Outgoing: > 100 µM

Incoming: If you can, please state the reported TGI value of `COC1=C(OC)C(=O)C(Cc2c(C)nc3sc(C)cn23)=C(C)C1=O` .
Outgoing: 28.6 µM

----------
Tested on: SK-OV-3 ovarian
Experiment: NCI tumour cell line growth inhibition, 48 h; in the data active = GI50 below about 0.43 µM; inactive = the rest
Entry note: the call must match one of 1 for active, -1 for inactive

Incoming: In this assay, the call recorded for `O=C(NC1=CC(=O)c2ccccc2C1=O)c1ccccc1` was what?
Outgoing: -1

Incoming: In this assay, the call recorded for COc1cccc2c1C(=O)c1c(O)c3c(c(O)c1C2=O)C[C@@](O)(C(C)=O)C[C@@H]3OC1OC(C)C(O)C(N)C1Br (some centres undefined) was what?
Outgoing: 1

Incoming: In this assay, the call recorded for `Cc1cc(C(=O)Nc2ncc(Cc3cccc(C(F)(F)F)c3)s2)c2ccccc2n1` was what?
Outgoing: -1

Incoming: In this assay, the call recorded for CCC[CH2][Sn]1([CH2]CCC)[O]CC(CN2CCCC2)[O]1 (centres undefined) was what?
Outgoing: -1

Incoming: In this assay, the call recorded for `COC(=O)C1=CNC=C(C(=O)OC)C1C1=CC(=O)C(C)=CC1=O` was what?
Outgoing: -1

Incoming: In this assay, the call recorded for CNc1ccc(C(=O)CC(O)CCC(C)C2OC(=O)CC(O)CC(=O)CC(O)CC(O)CC(O)CC(O)CC3(O)CC(O)C(C(=O)OC)C(CC(O[C@@H]4O[C@H](C)[C@@H](O)[C@H](N)[C@@H]4O)/C=C/C=C/C=C/C=C/C=C/C=C/C=C/C2C)O3)cc1 (some centres undefined) was what?
Outgoing: -1

Incoming: In this assay, the call recorded for `COc1ccc(Nc2c3ccccc3nc3occc23)cc1` was what?
Outgoing: -1

Incoming: In this assay, the call recorded for O=C1OC(C(O)CO)C(=O)C1=O (centres undefined) was what?
Outgoing: -1

Incoming: In this assay, the call recorded for `COC(=O)[C@@H](C)CNS(=O)(=O)N(c1cc(C(F)(F)F)cc(C(F)(F)F)c1)C1CCN(Cc2ccc(F)cc2)CC1` was what?
Outgoing: -1

Incoming: In this assay, the call recorded for c1cc(CNC23CC4CC(CC(C4)C2)C3)cc(C[N+](Cc2cccc(CNC34CC5CC(CC(C5)C3)C4)c2)(Cc2cccc(CNC34CC5CC(CC(C5)C3)C4)c2)Cc2cccc(CNC34CC5CC(CC(C5)C3)C4)c2)c1 (centres undefined) was what?
Outgoing: -1

Incoming: In this assay, the call recorded for `COc1ccccc1CNCCCN1C(=O)c2ccc3c4c(ccc(c24)C1=O)C(=O)N(CCCOCCCCOCCCN)C3=O` was what?
Outgoing: -1

Incoming: In this assay, the call recorded for `CN(C)C(=O)c1cc2cnc(Nc3ccc(-c4csc5c(=S)cc(N6CCOCC6)oc45)cc3)nc2n1C1CCCC1` was what?
Outgoing: -1

Incoming: In this assay, the call recorded for `CCCCCCCC/C=C/CCCCCCCC(=O)OC[C@H]1O[C@@H](n2ccc(N)nc2=O)C(F)(F)[C@@H]1O` was what?
Outgoing: 1

Incoming: In this assay, the call recorded for `CC(C)(C)c1cc(C(C)(C)C)cc(S(=O)(=O)Nc2cc3ccccc3cc2C(=O)NCCN)c1` was what?
Outgoing: -1
